- test-method-notes: Pharmacokinetic evaluation in mice (IV and oral)
- stated-conditions: female, CD1, mouse, in vivo, po, 10 mg/kg
measured-parameter: AUC(0-t) (ng·h/mL)

compound	unit-annotation	reported
Cc1c(CO)c(N)nc2cc(F)c(C(=O)N(C)[C@@H]3COc4cc(C(F)(F)F)ccc43)cc12 [Compound A9a]	ng·h/mL	74200

----------
- test-method-notes: Pharmacokinetic evaluation in mice (IV and oral)
- stated-conditions: female, CD1, mouse, in vivo, po, 10 mg/kg
measured-parameter: half-life (h)

compound-smiles	reported
Cc1c(CO)c(N)nc2cc(F)c(C(=O)N(C)[C@@H]3COc4cc(C(F)(F)F)ccc43)cc12	5.9

----------
- test-method-notes: Pharmacokinetic evaluation in mice (IV and oral)
- stated-conditions: female, CD1, mouse, in vivo, po, 10 mg/kg

compound-smiles	unit-annotation	Cmax
Cc1c(CO)c(N)nc2cc(F)c(C(=O)N(C)[C@@H]3COc4cc(C(F)(F)F)ccc43)cc12	ng/mL	5340

----------
- test-method-notes: Pharmacokinetic evaluation in mice (IV and oral)
- stated-conditions: female, CD1, mouse, in vivo, iv, 2 mg/kg

compound-smiles	unit-annotation	clearance
Cc1c(CO)c(N)nc2cc(F)c(C(=O)N(C)[C@@H]3COc4cc(C(F)(F)F)ccc43)cc12	mL/min/kg	1.7

----------
- Test system: MDR1 (P-gp)
- test-method-notes: MDCK-MDR1 membrane permeability assay
- Type: in vitro ADME
- stated-conditions: dog; MDCK-MDR1, 1 µM, pH 7.4, 2 hours

molecule	unit-annotation	Papp B→A at 2 h, 1 µM
Cc1c(CO)c(N)nc2cc(F)c(C(=O)N(C)[C@@H]3COc4cc(C(F)(F)F)ccc43)cc12 [Compound A9a]	×10⁻⁶ cm/s	5.9

----------
- System: HCT116-MTAPdel
- test-method-notes: 2D anti-proliferation assay (CTG luminescence), MTAP-deficient HCT116 cells
- Format: cell-based
- stated-conditions: ratio of IC50 HCT116 WT / MTAPdel
Would you mind labelling by HCT116 WT/MTAPdel Selectivity? At or over 100 is t, under is f.

compound	label-class
CN(C(=O)c1ccc2nc(N)c(C3CC3)cc2c1)C1COc2cc(-c3cnn(C(F)(F)F)c3)ccc21 (stereo not shown)	f
Cc1c(C2CC2)c(N)nc2cc(F)c(C(=O)N(C)C3COCc4nc(C(F)(F)F)ccc43)cc12 (stereo not shown)	f
Cc1c(CO)c(N)nc2cc(F)c(C(=O)N(C)C3COc4cc(C(F)(F)F)ccc43)cc12 (racemic)	t
Cc1c(CO)c(N)nc2cc(F)c(C(=O)N3C(C)COCC3c3ccc(C(F)(F)F)cc3)cc12 (racemic)	t
Cc1c(CO)c(N)nc2cc(F)c(C(=O)N(C)[C@H]3COCc4nc(-c5cncc(C(F)(F)F)c5)ccc43)cc12 (racemic)	t
Cc1c(CO)c(N)nc2cc(F)c(C(=O)N3C(C)COCC3c3ccc(-c4cncc(Cl)c4)cn3)cc12 (racemic)	t
Cc1c(CO)c(N)nc2cc(F)c(C(=O)N3C(C)COCC3c3ccc(OC(F)(F)F)cc3)cc12 (racemic)	f
Cc1c(CO)c(N)nc2cc(F)c(C(=O)N(C)[C@H]3COCc4nc(-c5cncc(Cl)c5)ccc43)cc12 (racemic)	t
Cc1c(C2CC2)c(N)nc2cc(F)c(C(=O)N3[C@@H](C)COC[C@H]3c3ccc(-c4cncc(C(F)(F)F)c4)cn3)cc12	f
Cc1c(CO)c(N)nc2cc(F)c(C(=O)N3C(C)COCC3c3ccc(-c4cncc(F)c4)cn3)cc12 (racemic)	t
Cc1c(CO)c(N)nc2cc(F)c(C(=O)N(C)[C@@H]3COc4cc(C(F)(F)F)ccc43)cc12	t
Cc1c(C2CC2)c(N)nc2cc(Cl)c(C(=O)N(C)C3COCc4nc(C(F)(F)F)ccc43)cc12 (stereo not shown)	f
Cc1c(C2CC2)c(N)nc2cc(Cl)c(C(=O)N3[C@H](C)COC[C@@H]3c3ccc(C(F)(F)F)cn3)cc12	f
Cc1c(C2CC2)c(N)nc2cc(Cl)c(C(=O)N3[C@@H](C)COC[C@H]3c3ccc(C(F)(F)F)cn3)cc12	f
CC(=O)N1CCC(Nc2cc(C(=O)NC[C@H](O)CN3CCc4ccccc4C3)ncn2)CC1 [GSK3326595, reference compound]	f
Cc1c(C2CC2)c(N)nc2cc(F)c(C(=O)N3[C@@H](C)COC[C@H]3c3ccc(-c4cncc(Cl)c4)cn3)cc12	f
Cc1c(CO)c(N)nc2cc(F)c(C(=O)N3CC(C)CCC3c3ccc4scnc4c3)cc12 (racemic)	f
C[C@H]1COC[C@@H](c2ccc(OC(F)F)nn2)N1C(=O)c1cc2cc(C3CC3)c(N)nc2cc1F	t
